# run.description: AUC in monkey at 1 mg/kg, sc
# Type: ADME, organism-based, Macaca mulatta
# Design: dose 1 mg/kg, route subcutaneous
# measurement.conditions: rhesus monkey, plasma
Numbered stars: 1 amine (or outer) side, 2 acyl side, 3 side chain; on linkers, the order of the positions; unused ones are H or OH. Square brackets hold non-standard residues; d marks the D form. Peptide text beside a SMILES is read from it. * marks the point of attachment. Pro(3R,4S-CMe2) = CC1(C)[C@@H]2[C@@H](C(=O)O)NC[C@@H]21; X1 = O=C(C(=O)[*:2])C(CC1CC1)N[*:1]; Phg = N[C@H](C(=O)O)c1ccccc1; Tle = CC(C)(C)[C@H](N)C(=O)O; Boc = CC(C)(C)OC(=O)*
measurement.kind: AUC
Lab note: write values as number then unit, every time.

[ask] // returns reported AUC for input CN(C)C(=O)[C@@H](NC(=O)CNC(=O)C(=O)C(CC1CC1)NC(=O)[C@@H]1[C@@H]2[C@H](CN1C(=O)[C@@H](NC(=O)OC(C)(C)C)C(C)(C)C)C2(C)C)c1ccccc1 (stereo partly drawn) (Boc-[Tle][Pro(3R,4S-CMe2)][X1]G[Phg]-NMe2)
[reply] 5.6 µM·h

FYI, the data here is from ChEMBL document CHEMBL1147660.
